These measurements were taken from PubChem BioAssay (NCATS).

# Test system: CP256
# method.summary: qHTS profiling for inhibitors of Plasmodium falciparum proliferation (AID 504749); note: nearly all actives have a fitted effect of over 60% in size
# condition.info: P. falciparum in erythrocytes, SYBR Green DNA, 72 h; series mostly up to 28.7 µM
Inconclusive results are not listed. The source made the active and inactive calls. Calls come from the whole dose curve; as a rule, active = well fitted inhibition curve with a large enough effect; inconclusive = small, poorly fitted or top-dose-only effect; inactive = flat fitted curve, though single readings scatter.
Allowed answers: active, inactive

Q) Please state the recorded outcome for this compound: "NCCCC(O)(P(=O)(O)O)P(=O)(O)O"
A) inactive

Q) Please state the recorded outcome for this compound: "Nc1[nH]c(=O)ncc1F"
A) inactive

Q) Please state the recorded outcome for this compound: "CC(C)(C#N)c1cc(Cn2cncn2)cc(C(C)(C)C#N)c1"
A) inactive

Q) Please state the recorded outcome for this compound: C1CCC(C(CC2CCCCN2)C2CCCCC2)CC1 (centres undefined)
A) active

Q) Please state the recorded outcome for this compound: "COc1cnc(NS(=O)(=O)c2ccc(N)cc2)nc1"
A) inactive

Q) Please state the recorded outcome for this compound: "COC(=O)Nc1nc2ccc(C(=O)c3ccccc3)cc2[nH]1"
A) inactive

Q) Please state the recorded outcome for this compound: "Nc1nc(N)nc(-c2cc(Cl)ccc2Cl)n1"
A) inactive

Q) Please state the recorded outcome for this compound: "COC(=O)Nc1nc2ccc(Sc3ccccc3)cc2[nH]1"
A) inactive

Q) Please state the recorded outcome for this compound: "CC[C@H](C)C(=O)O[C@H]1C[C@@H](C)C=C2C=C[C@H](C)[C@H](CC[C@@H]3C[C@@H](O)CC(=O)O3)[C@H]21"
A) inactive

Q) Please state the recorded outcome for this compound: "CC1=NN(c2ccccc2)C(=O)C1"
A) inactive

Q) Please state the recorded outcome for this compound: "Cc1noc(NS(=O)(=O)c2ccc(N)cc2)c1C"
A) inactive

Q) Please state the recorded outcome for this compound: "Nc1ccc(S(=O)(=O)Nc2ccccn2)cc1"
A) inactive

Q) Please state the recorded outcome for this compound: "CCc1c2c(nc3ccc(OC(=O)N4CCC(N5CCCCC5)CC4)cc13)-c1cc3c(c(=O)n1C2)COC(=O)[C@]3(O)CC"
A) inactive

Q) Please state the recorded outcome for this compound: "CN1CCN(c2c(F)cc3c(=O)c(C(=O)O)cn(CCF)c3c2F)CC1"
A) inactive

Q) Please state the recorded outcome for this compound: "CC(=O)Oc1ccccc1C(=O)Nc1ncc([N+](=O)[O-])s1"
A) inactive

Q) Please state the recorded outcome for this compound: "COc1cc(NCc2ccc3nc(N)nc(N)c3c2C)cc(OC)c1OC"
A) active

Q) Please state the recorded outcome for this compound: "CCCc1cc(C(N)=S)ccn1"
A) inactive

Q) Please state the recorded outcome for this compound: "CC(C)(Sc1cc(C(C)(C)C)c(O)c(C(C)(C)C)c1)Sc1cc(C(C)(C)C)c(O)c(C(C)(C)C)c1"
A) inactive

Q) Please state the recorded outcome for this compound: "N=C(N)c1ccc(OCCCCCOc2ccc(C(=N)N)cc2)cc1"
A) active

Q) Please state the recorded outcome for this compound: CCOc1cc(N)c(Cl)cc1C(=O)NCC1CN(Cc2ccc(F)cc2)CCO1 (centres undefined)
A) active

Q) Please state the recorded outcome for this compound: "Cn1nnc2c(C(N)=O)ncn2c1=O"
A) inactive

Q) Please state the recorded outcome for this compound: "Cc1ncc([N+](=O)[O-])n1CCO"
A) inactive

Q) Please state the recorded outcome for this compound: "CCc1cc(C(N)=S)ccn1"
A) inactive

Q) Please state the recorded outcome for this compound: CC(N)C12CC3CC(CC(C3)C1)C2 (centres undefined)
A) inactive

Q) Please state the recorded outcome for this compound: "N[C@@H](C(=O)N[C@@H]1C(=O)N2C(C(=O)O)=C(Cl)CS[C@H]12)c1ccccc1"
A) inactive

Q) Please state the recorded outcome for this compound: "O=c1cc(O)c(Cl)c[nH]1"
A) inactive

Q) Please state the recorded outcome for this compound: "O=NN(CCCl)C(=O)NC1CCCCC1"
A) inactive

Q) Please state the recorded outcome for this compound: "NC(=O)N1c2ccccc2CC(=O)c2ccccc21"
A) inactive

Q) Please state the recorded outcome for this compound: "CCCc1nc(C)c2c(=O)[nH]c(-c3cc(S(=O)(=O)N4CCN(CC)CC4)ccc3OCC)nn12"
A) inactive

Q) Please state the recorded outcome for this compound: "OC(Cn1cncn1)(Cn1cncn1)c1ccc(F)cc1F"
A) inactive

Q) Please state the recorded outcome for this compound: "Cc1nnc(NS(=O)(=O)c2ccc(N)cc2)s1"
A) inactive

Q) Please state the recorded outcome for this compound: "CN(C)c1ccc(C(=C2C=CC(=[N+](C)C)C=C2)c2ccc(N(C)C)cc2)cc1"
A) active

Q) Please state the recorded outcome for this compound: Nc1nc(N)c2nc(CNc3ccc(C(=O)NC(CCC(=O)O)C(=O)O)cc3)cnc2n1 (centres undefined)
A) inactive

Q) Please state the recorded outcome for this compound: CC(C)NCC(O)c1ccc(NS(C)(=O)=O)cc1 (centres undefined)
A) inactive
